# System: A549/ATCC NSCLC
# assay.method.text: NCI-60 one-dose screen, 48 h (100 = growth as untreated, 0 = no growth, -100 = all killed)
# conditions: 10 µM unless noted
# Procedure: Growth inhibition of the A549/ATCC human Non-Small Cell Lung tumor cell line is measured as a screen for anti-cancer activity. Cells are grown in 96 well plates and exposed to the test compound for 48 hours. Compounds are tested at a single concentration, which is 10^-5 M for most compounds. The reported endpoint is percent growth (GI% or GIPRCNT), where numbers from 0 - 100% represent growth inhibition, and numbers from -100% - 0 represent cell death. […]
Compounds without any hit were thinned out: in the full panel of roughly 83,000, 20% have a hit.
Quick reference for growth among some compounds
Supply the numeric figure in %, leaving out any unit text.

COc1ccc(C(=O)c2cc(C(C)=O)c3c(C)cc(C)cn23)cc1; 45.3
Cc1nn(-c2ccccc2)c2nc(C)n(CC(=O)N/N=C/c3ccccc3O)c(=O)c12; 26.2
Nc1nn2c(-c3cc4ccccc4oc3=O)ccnc2c1N=Nc1ccccc1; 100
O=C(NNC(=S)NC(=O)c1ccccc1)c1ccc(OCc2nc3ccc(Cl)cc3[nH]2)cc1; -29.2
Oc1ccc(Cl)c(Nc2nc(SCCN3CCOCC3)nc3c2cnn3CC(Cl)c2ccc(Br)cc2)c1 (stereo unspecified); 12
OC1CCC(Cn2c(C(F)(F)F)cc3c(Cl)ncnc32)CC1 (stereo unspecified); 94

Request: What does the record list as growth for `Cc1ccc(N=Nc2c(N)nn3c(-c4cc5ccccc5oc4=O)ccnc23)cc1` ?
Response: 45.1

Request: What does the record list as growth for `C=CCSc1nnc(-c2c(C)nc3sccn23)o1` ?
Response: 92.7

Request: What does the record list as growth for CN(C)CCOc1ccc(C(=O)C2[C@H](c3ccc(Cl)cc3)[C@@H](c3ccccc3)NC23C(=O)Nc2ccc(Cl)cc23)cc1 (stereo partly specified) ?
Response: -77.9
